Would you kindly list TGI for each of these compounds?
System: SF-295 CNS
Assay: NCI tumour cell line growth inhibition, 48 h

Batch request: TGI per item, same order as input.
1. CCOC(=O)c1c[nH]c(C(=O)C=[N+]=[N-])c1C1CCN(CC)C1=S (stereo unspecified)
2. CC(O)[C@H](NC(=O)N[C@@H](CC(N)=O)c1nc(N2CCNCC2)no1)C(=O)O (stereo partly specified)
3. CCOc1ccc(NC(=O)C(=O)Nn2c(N)nnc2N)cc1
4. CC1=CCC(C(C)(C)NC(=O)c2ccccc2)C/C1=N/O (stereo unspecified)
5. COc1cc([C@@H]2c3cc4c(cc3[C@@H](NCc3cccc(C#N)c3)C3COC(=O)[C@@H]32)OCO4)cc(OC)c1O (stereo partly specified)
6. C=CCN1CCC(c2cc(C(=O)OCC)[nH]c2-c2cc(C)no2)C1=O (stereo unspecified)
7. COc1ccc2c(c1)C(=O)c1c-2c(OCCN(C)C)nc2cc(OC)c(OC)cc12
8. COc1ccc(/C=N/NS(=O)(=O)c2ccccc2)cc1

1. > 100 µM
2. > 100 µM
3. > 100 µM
4. > 100 µM
5. 7 µM
6. > 100 µM
7. 0.21 µM
8. > 100 µM

Batch request: TGI per item, same order as input.
1. O=NNc1ccc(S(=O)(=O)c2ccc3ccccc3c2)cn1
2. Cc1ccc(S(=O)C(C)C(Cl)c2ccccc2)cc1 (stereo unspecified)

1. > 100 µM
2. > 100 µM

Batch request: TGI per item, same order as input.
1. C=C1C(=O)O[C@H]2C1C[C@H](O)[C@@]1(C)OC1CC[C@@]1(C)O[C@H]21 (stereo partly specified)
2. CCc1ccc2c(c1)N(CCO)C1=C(C(=O)OC1)C2c1cc(OC)c(OC)c(OC)c1 (stereo unspecified)
3. O=[N+]([O-])/C=C/c1ccc(Cl)cc1[N+](=O)[O-]
4. Cn1nnc2c3c(N(CCO)CCO)ccnc3ccc21

1. > 100 µM
2. 0.469 µM
3. 21.6 µM
4. > 100 µM

Batch request: TGI per item, same order as input.
1. CN(C)c1ccc(C(O)C2=CC(=O)c3ccccc3C2=O)cc1 (stereo unspecified)
2. COc1cc(OC)c2c(=O)c3cccc(C)c3n(C)c2c1
3. COc1ccc(C2NC(=S)NC3=C2CCOc2c3ccc3ccccc23)cc1 (stereo unspecified)

1: 93.3 µM; 2: > 100 µM; 3: > 100 µM

Batch request: TGI per item, same order as input.
1. CC1(C)OC(=O)C(=C2CCC(C(=O)Nc3cccc(C(F)(F)F)c3)N2)C(=O)O1 (stereo unspecified)
2. COc1ccccc1N/C(SCc1ccccc1)=C(/C(Cl)=C(Cl)Cl)[N+](=O)[O-]
3. Cc1c(/C=N/NC(=S)N2CCCCC2)c(=O)n(-c2ccccc2)n1C
4. CC(C)(C)OC(=O)CCCCCNC(=O)CCCCCNC(=O)CCC(CN(CC(=O)OCc1ccccc1)CC(=O)OCc1ccccc1)N(CC(=O)OCc1ccccc1)CC(=O)OCc1ccccc1 (stereo unspecified)

["> 100 µM", "59.6 µM", "> 100 µM", "> 100 µM"]

* * *

Would you kindly list TGI for each of these compounds?
Tested on: NCI/ADR-RES ovarian
Assay: NCI tumour cell line growth inhibition, 48 h

{"compound": "COc1ccc2nc3cc(Cl)ccc3c(NCCCN3CCN(CCCNc4ccc5nnn6c7ccccc7c(=O)c4c56)CC3)c2c1", "TGI": "> 25 µM"}
{"compound": "CC(C)(C)OC(=O)CCCCCNC(=O)CCCCCNC(=O)CCC(CN(CC(=O)OCc1ccccc1)CC(=O)OCc1ccccc1)N(CC(=O)OCc1ccccc1)CC(=O)OCc1ccccc1 (stereo unspecified)", "TGI": "> 100 µM"}
{"compound": "O=C(NCCN1CCCCC1)c1cccc(I)c1", "TGI": "> 100 µM"}

Batch request: TGI per item, same order as input.
1. O=[N+]([O-])c1cccc2nccc(NCCN3CCOCC3)c12
2. C=C1C(O)C2(O)OCC34C(CC5C(C)=CC(=O)C(O)C5(C)C23)OC(=O)C(OC(=O)C/C=C/CCCCCCCC)C14 (stereo unspecified)
3. Cc1ccc(C(=O)Oc2ccccc2)cc1N=NN(C)C
4. Cc1c(/C=N/NC(=S)N2CCCCC2)c(=O)n(-c2ccccc2)n1C

1. > 100 µM
2. 2.55 µM
3. > 100 µM
4. > 100 µM

* * *

Test system: UACC-62 melanoma
Experiment: NCI tumour cell line growth inhibition, 48 h
Would you kindly list TGI for each of these compounds?

Completed entries (count: 10):
{"compound": "COc1cc2cc(C(=O)N3CC(CCl)c4ccc([N+](C)(C)Cc5ccccc5[N+](=O)[O-])cc43)[nH]c2c(OC)c1OC (stereo unspecified)", "TGI": "2.76 µM"}
{"compound": "COc1cc([C@@H]2c3cc4c(cc3[C@@H](Nc3ccc(Cl)cc3C(=O)c3ccccc3)[C@H]3COC(=O)[C@H]23)OCO4)cc(OC)c1OC", "TGI": "> 100 µM"}
{"compound": "CN1CCc2ccccc2C(C(=O)c2ccc3c(c2)OCO3)C1=O (stereo unspecified)", "TGI": "> 100 µM"}
{"compound": "COc1ccc(CCn2cncn2)cc1", "TGI": "> 100 µM"}
{"compound": "COc1ccc(/C=N/NS(=O)(=O)c2ccccc2)cc1", "TGI": "> 100 µM"}
{"compound": "COc1cc([C@@H]2c3cc4c(cc3[C@@H](NCc3cccc(C#N)c3)C3COC(=O)[C@@H]32)OCO4)cc(OC)c1O (stereo partly specified)", "TGI": "2.93 µM"}
{"compound": "Cc1ccc2ccc(-c3ccccc3)c3c2c1C(=O)c1ccccc1C3=O", "TGI": "> 100 µM"}
{"compound": "COc1cc(OC)c2c(=O)c3cccc([N+](=O)[O-])c3n(C)c2c1", "TGI": "> 100 µM"}
{"compound": "CC(=O)Oc1cc2cnc3c4cc(OC(C)=O)c(OC(C)=O)cc4ccc3c2cc1OC(C)=O", "TGI": "3.26 µM"}
{"compound": "COc1ccc(C(O)c2cc3c(N)c(C(=O)Nc4cccc(Br)c4C)sc3nc2C)cc1 (stereo unspecified)", "TGI": "> 31 µM"}

Batch request: TGI per item, same order as input.
1. CCCc1cc(OC(=O)c2c(O)cc(OC)cc2CCC)cc(O)c1C(=O)O
2. C[C@@H]1CC[C@@H]2[C@@H](C1)O[C@@H]([C@@H](C)OCc1ccccc1)SC2(C)C
3. CC(=O)c1ccc(Nc2c3ccccc3nc3occc23)cc1
4. C[C@H]1CC[P+](C)(c2ccccc2)C1 (stereo partly specified)

["78.1 µM", "43.2 µM", "10.7 µM", "> 100 µM"]

Batch request: TGI per item, same order as input.
1. CNC(=O)OCc1nc(SC)n(C)c1COC(=O)NC
2. N#CCc1cccc(CC#N)c1Br
3. O=C(NCCN1CCCCC1)c1cccc(I)c1
4. COc1ccc2c(c1)C(=O)c1c-2c(OCCN(C)C)nc2cc(OC)c(OC)cc12
5. N#C/C(=C(/O)CCl)c1nc2ccccc2o1
6. O=C1NCN(c2ccccc2)C12CCN(CC1COc3ccccc3O1)CC2 (stereo unspecified)
7. C=C1CC[C@H]2C(C)=CC[C@H]3C(=C)C(=O)O[C@@H]3[C@@H]12

1: 103 µM; 2: > 100 µM; 3: > 100 µM; 4: > 100 µM; 5: 6.27 µM; 6: > 100 µM; 7: > 100 µM

* * *

Test system: OVCAR-5 ovarian
Experiment: NCI tumour cell line growth inhibition, 48 h; in the data active means GI50 below about 0.43 µM; inactive means the rest
The reply should be one of these categories: T = active, F = inactive

A selection of reference data follows.
{"compound": "COc1ccc(C2=Nn3c(nnc3-n3nc(C)cc3C)SC2)cc1", "studyTarget": "OVCAR-5 ovarian", "labelClass": "T"}
{"compound": "O=CN1N=C(c2cccc(Nc3ccnc4cc(Cl)ccc34)c2)CC1c1ccc(Cl)cc1 (stereo not given)", "studyTarget": "OVCAR-5 ovarian", "labelClass": "F"}
{"compound": "CSC1=Nc2c(c(C)c(-c3ccccc3)n2COC(CO)CO)C2=NC(=O)CC(C)N12 (stereo not given)", "studyTarget": "OVCAR-5 ovarian", "labelClass": "F"}
{"compound": "NC(=O)/C(=C/n1cnc(-c2cc(C(F)(F)F)cc(C(F)(F)F)c2)n1)c1cncnc1", "studyTarget": "OVCAR-5 ovarian", "labelClass": "F"}
{"compound": "C[As](C)SC1OCC(O)C(O)C1O (stereo not given)", "studyTarget": "OVCAR-5 ovarian", "labelClass": "T"}
{"compound": "O=C1Nc2ccc3c(c2/C1=C\\c1cc2c(cc1Br)OCO2)OCO3", "studyTarget": "OVCAR-5 ovarian", "labelClass": "F"}
{"compound": "COc1ccc(-c2c(N)noc2-c2cc(OC)c3c(c2)OCCO3)cc1", "studyTarget": "OVCAR-5 ovarian", "labelClass": "T"}
{"compound": "COc1ccc(-c2cc(/C=C/C(=O)c3ccc(N)cc3)[nH]n2)cc1", "studyTarget": "OVCAR-5 ovarian", "labelClass": "F"}
{"compound": "CC(C)OP(=O)(O)c1ncc(-c2ccc(C(F)(F)F)cc2)c(NC2CCCCCC2)n1", "studyTarget": "OVCAR-5 ovarian", "labelClass": "F"}
{"compound": "COc1ccc(C2NC(=S)NC3=C2CCOc2c3ccc3ccccc23)cc1 (stereo not given)", "studyTarget": "OVCAR-5 ovarian", "labelClass": "F"}

Check the results log: what was the call for CS(=O)(=O)Nc1cc(-c2ccc3ncnc(Nc4cccc(Cl)c4)c3c2)cnc1Cl ?
T

Check the results log: what was the call for N#[N+]c1ccc(Nc2ccccc2)cc1 ?
F

Check the results log: what was the call for O=[N+]([O-])/C=C/c1ccc(Cl)cc1[N+](=O)[O-] ?
F

Check the results log: what was the call for Cc1ccc(C2CC(c3ccc(Nc4ccnc5cc(Cl)ccc45)cc3)=NN2C=O)cc1 (stereo not given) ?
F

Check the results log: what was the call for Cn1cnnc1[S-].[Au+].c1ccc([PH+](c2ccccc2)c2ccccc2)cc1 ?
F
